Test system: K562
Assay: NCI tumour cell line growth inhibition, 48 h
The source made the active and inactive calls. Cut-off read from the data, not from the text of the source: active = GI50 up to about 1.1 µM and inactive = higher.
A correct response names exactly one class from True (active), False (inactive)

Solved cases (8 shown):
CCCC(=O)OCC1OC(n2ccc(N)nc2=O)C(OC(=O)CCC)C1OC(=O)CCC (centres undefined) :: False
COC(=O)C(Cc1c[nH]c2ccccc12)NC1=Nc2ccncc2S(=O)(=O)N1c1ccccc1 (centres undefined) :: False
CSC(Cc1ccc2c(c1)Sc1ccccc1O2)=[N+]1CCOCC1 :: False
C=C(C)COC1CCCCO1 (centres undefined) :: False
CC(C)c1ccc(C(c2c(O)oc3ccccc3c2=O)c2c(O)oc3ccccc3c2=O)cc1 :: False
CC(N)(/C=C/c1ccccc1)C(=O)O (centres undefined) :: False
O=C(CSc1nnc(Cc2ccccc2)o1)Nc1ccc([N+](=O)[O-])cc1 :: False
O=C1c2cccnc2C(=O)c2c1nc1ccccc1c2-c1ccc2c3c(nc4ccccc42)C(=O)c2cccnc2-c13 :: False

Query: What was the test verdict on CC1=C(C(=O)NCCc2ccccc2)CC(C(=O)NCCc2ccccc2)=C(C)N1 ?
Reply: False

Query: What was the test verdict on COc1ccc(C=O)c(NC(=O)C(C)C)c1 ?
Reply: False

Query: What was the test verdict on O=c1cc[nH]c2c1ccc1ncccc12 ?
Reply: False

Query: What was the test verdict on O=c1cccccc1NCCCCCCNc1cccccc1=O ?
Reply: False

Query: What was the test verdict on CC1(C)[C@@H](Cn2cnc3c(O)nc(N)nc32)CC[C@@]1(C)CO ?
Reply: False

Query: What was the test verdict on Cc1ccc(/C=C2\N=C(N3CCCC(CO)C3)NC2=O)cc1 (centres undefined) ?
Reply: False

Query: What was the test verdict on N#Cc1c(O)nc2nn3c4ccc5ccccc5c4nnc3c2c1-c1ccc(Cl)cc1 ?
Reply: False

Query: What was the test verdict on CCOc1ccc(C2=C(Cl)c3cc(OC)c(OC)cc3C2Cl)cc1 (centres undefined) ?
Reply: False

Query: What was the test verdict on N=C(/C=C/c1ccc(-c2cn3cc(/C=C/C(=N)N4CCCC4)ccc3n2)cc1)N1CCCC1 ?
Reply: False

Query: What was the test verdict on NCC1OC(n2cnc3c(N)ncnc32)CC1O (centres undefined) ?
Reply: False

Query: What was the test verdict on CC(=O)O[C@H](C[C@@H](C)[C@H]1C(=O)[C@H](O)[C@@]2(C)C3CC[C@H]4C(C)(C)[C@@H](OC5OCC(O)C(O)C5O)CC[C@@]45C[C@@]35CC[C@]12C)[C@@H]1OC1(C)C (some centres undefined) ?
Reply: True

Query: What was the test verdict on COc1cccc(C2c3cc4c(cc3OC(C)(O)C2C)OCO4)c1O (centres undefined) ?
Reply: False

Query: What was the test verdict on COc1c2ccsc2c(OC)c2ccsc12 ?
Reply: False

Query: What was the test verdict on COC(=O)C1=C(c2ccc(Cl)cc2)C(O)NC(NN)=N1 (centres undefined) ?
Reply: False

Query: What was the test verdict on COc1ccc(/C=C2/SC(c3ccc(Cl)cc3)N(NC(=O)CCCCCCCCC(=O)NN3C(=O)/C(=C\c4ccc(OC)c(OC)c4)SC3c3ccc(Cl)cc3)C2=O)cc1OC (centres undefined) ?
Reply: False

Query: What was the test verdict on Cc1nc2ccccc2n1Cc1ccc(NC(=S)Nc2ccccc2)cc1 ?
Reply: False

Query: What was the test verdict on CC1=NN(C(=O)c2ccc(Cl)cc2)C(=O)/C1=C/c1ccc(O)cc1 ?
Reply: False

Query: What was the test verdict on CC1(C)C(=O)/C=C\C(=O)C(C)(C)C(=O)/C=C\C(=O)C(C)(C)C(=O)/C=C\C(=O)C(C)(C)C(=O)/C=C\C1=O ?
Reply: False

Query: What was the test verdict on COC(=O)[C@H](Cc1ccccc1)NC(=O)/C(=C/C(C)C)NC(=O)[C@H](CCSC)NC=O ?
Reply: False

meta.source: ChEMBL document CHEMBL1201862
